- target of assay: UniProtKB P04062
- Sequence (P04062 whole entry): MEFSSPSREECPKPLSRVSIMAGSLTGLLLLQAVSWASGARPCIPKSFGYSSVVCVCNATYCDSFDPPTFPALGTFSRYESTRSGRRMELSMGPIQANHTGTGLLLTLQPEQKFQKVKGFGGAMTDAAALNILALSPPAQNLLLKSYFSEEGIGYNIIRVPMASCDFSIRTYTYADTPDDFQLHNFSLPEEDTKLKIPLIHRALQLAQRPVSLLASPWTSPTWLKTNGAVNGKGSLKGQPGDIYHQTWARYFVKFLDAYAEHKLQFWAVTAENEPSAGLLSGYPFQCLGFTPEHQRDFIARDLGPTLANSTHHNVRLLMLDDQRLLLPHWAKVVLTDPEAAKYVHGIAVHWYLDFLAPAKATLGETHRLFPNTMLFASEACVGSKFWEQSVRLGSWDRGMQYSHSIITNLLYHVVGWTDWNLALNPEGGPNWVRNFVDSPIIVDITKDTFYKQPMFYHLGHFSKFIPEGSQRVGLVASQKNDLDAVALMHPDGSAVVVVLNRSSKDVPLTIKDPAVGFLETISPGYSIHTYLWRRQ
- method notes: Chaperone activity at GCase in wild-type human fibroblasts assessed as increase in GPN-induced reduction of calcium release using Fluo-8AM based fluorescence assay
parameter: EC50 (nM)

C/C=C/c1ccccc1C(CCCC)C(=O)c1ccc(OCCN(C)C)cc1 (centres undefined); 1100

a = CC(C)CC(C(=O)c1ccc(OCCN(C)C)cc1)c1ccccc1C(C)C (centres undefined)
b = CCCCC(C(=O)c1ccc(OCCN(C)C)cc1)c1ccccc1C(C)C (centres undefined)
Task: // pick larger EC50 from pair: a vs b Reply with the label of the item you choose.
Result: a
